The origin of these recorded values is ChEMBL document CHEMBL1129740.

system.tested: Serotonin 2 (5-HT2) receptor (Rattus norvegicus, UniProt P30994+P08909+P14842)
protocol.details: In vitro inhibitory activity against [3H]ketanserin binding to 5-hydroxytryptamine 2 receptor
Assay type: protein assay
Please respond with reported IC50 for every item in the list.
Give bare numbers, in nM.

Please review the entries below; each comes with its answer.
> print(dat)
                            chemical.string  numeric.value
1  COc1ccc(Br)c(OC)c1C(=O)NCCCCN1CCN(c2nsc3ccccc23)CC1.Cl             12
2  Cl.O=C(NCCCCN1CCN(c2nsc3ccccc23)CC1)c1ccccc1O            3.9

Now for a further molecule.
Exercise: Fill in reported IC50 for this entry: `COc1ccc(C(=O)NCCCCN2CCN(c3nsc4ccccc34)CC2)cc1.Cl`
Solution: 2.3

---

Test system: Mus musculus
protocol.details: In vivo effective dose to induce catalepsy in mouse administered perorally.
Assay type: functional
test.settings: po
Please respond with reported ED50 for every item in the list.
Give bare numbers, in mg/kg.

Please review the entries below; each comes with its answer.
> print(dat)
                            chemical.string  system.tested  numeric.value
1  CC(C)[C@H](Nc1ccccc1C(=O)NCCCCN1CCN(c2nsc3ccccc23)CC1)C(=O)O.Cl   Mus musculus           44.5
2  CNc1ccccc1C(=O)NCCCCN1CCN(c2nsc3ccccc23)CC1.Cl   Mus musculus           80.6
3  COc1ccc(Br)c(O)c1C(=O)NCCCCN1CCN(c2nsc3ccccc23)CC1.Cl   Mus musculus            123

Now for a further molecule.
Exercise: GET ED50 where system = Mus musculus and item = `Cl.Nc1c(F)cccc1C(=O)NCCCCN1CCN(c2nsc3ccccc23)CC1`
Solution: 55.5

---

Please respond with reported ED50 for every item in the list.
System: Mus musculus
protocol.details: In vivo effective dose required to antagonize the apomorphine induced climbing response in mice administered intraperitoneally.
Assay type: functional
test.settings: ip
Answers are plain numbers, in mg/kg.

Please review the entries below; each comes with its answer.
> print(dat)
                            chemical.string  assay.readout  numeric.value
1  CNc1ccccc1C(=O)NCCCCN1CCN(c2nsc3ccccc23)CC1.Cl           ED50            5.8
2  Cl.Nc1cc(F)ccc1C(=O)NCCCCN1CCN(c2nsc3ccccc23)CC1           ED50            2.5
3  COc1cccc(C(=O)NCCCCN2CCN(c3nsc4ccccc34)CC2)c1N.Cl           ED50            2.2

Now for a further compound.
Exercise: Fill in reported ED50 for this entry: `COc1ccc(Br)c(O)c1C(=O)NCCCCN1CCN(c2nsc3ccccc23)CC1.Cl`
Solution: 1.5

---

Please respond with reported IC50 for every item in the list.
system.tested: Serotonin 2 (5-HT2) receptor (Rattus norvegicus, UniProt P30994+P08909+P14842)
protocol.details: In vitro inhibitory activity against [3H]ketanserin binding to 5-hydroxytryptamine 2 receptor
Type: protein assay
Give bare numbers, in nM.

Please review the entries below; each comes with its answer.
> print(dat)
                            chemical.string  assay.readout  numeric.value
1  Cc1cccc(C(=O)NCCCCN2CCN(c3nsc4ccccc34)CC2)c1N.Cl           IC50            5.8
2  COc1ccc(N)c(C(=O)NCCCCN2CCN(c3nsc4ccccc34)CC2)c1.Cl           IC50            1.4
3  COc1cccc(C(=O)NCCCCN2CCN(c3nsc4ccccc34)CC2)c1N.Cl           IC50            1.6
4  CCOC(=O)Nc1ccccc1C(=O)NCCCCN1CCN(c2nsc3ccccc23)CC1.Cl           IC50            1.4
5  CC(C)(C)c1ccc(C(=O)NCCCCN2CCN(c3nsc4ccccc34)CC2)cc1.Cl           IC50             68
6  CN(CCCCN1CCN(c2nsc3ccccc23)CC1)C(=O)c1ccccc1N.Cl           IC50            2.3

The following molecules each have a reported value; give each one's IC50.
1. Cl.Nc1cccc(C(=O)NCCCCN2CCN(c3nsc4ccccc34)CC2)c1
2. Cc1cccc(N)c1C(=O)NCCCCN1CCN(c2nsc3ccccc23)CC1.Cl
3. Cl.O=C(NCCCCN1CCN(c2nsc3ccccc23)CC1)c1c(O)ccc(Br)c1O
4. CCc1cc(Cl)c(OC)c(C(=O)NCCCCN2CCN(c3nsc4ccccc34)CC2)c1O.Cl
5. Cl.Nc1ccc(C(=O)NCCCCN2CCN(c3nsc4ccccc34)CC2)cc1
6. Cl.Nc1ccccc1C(=O)NCCCCN1CCN(c2nsc3ccccc23)CC1
7. Cl.Nc1c(F)cccc1C(=O)NCCCCN1CCN(c2nsc3ccccc23)CC1
8. Cl.Nc1cccc(Cl)c1C(=O)NCCCCN1CCN(c2nsc3ccccc23)CC1

Solution:
1. 2.6
2. 8.9
3. 16
4. 6.8
5. 150
6. 3.3
7. 0.5
8. 3.4
